Test system: HepG2 cells
Assay: ATP content (CellTiter-Glo)
Type: cell-based, human
Settings: HepG2, 24 h exposure
# reported Concentration at which significant depletion of ATP was observed; entries follow
Please report the result as a number followed by the unit.

Some compounds with known Concentration at which significant depletion of ATP was observed results, for comparison:
>>> print(df.to_string())
                                   compound  system_name   result
0  CNC(C)C(=O)c1ccccc1 (stereo not drawn) [Methcathinone, methcathinone]  HepG2 cells  2000 µM
1  CNC(C)C(=O)c1ccc(F)cc1 (stereo not drawn) [4-Fluoromethcathinone, 4-fluoromethcathinone]  HepG2 cells  1000 µM
2  CC(N)Cc1ccc(F)cc1 (stereo not drawn) [4-Fluoroamphetamine, 4-fluoroamphetamine]  HepG2 cells   500 µM
3  CNC(C)C(=O)c1ccc(Cl)cc1 (stereo not drawn) [4-Chloromethcathinone, 4-chloromethcathinone]  HepG2 cells  1000 µM
4  CC(N)Cc1ccc(Cl)cc1 (stereo not drawn) [4-Chloroamphetamine]  HepG2 cells   100 µM

Now turn to the next compound.
Request: Which value of Concentration at which significant depletion of ATP was observed has been reported for CC(N)Cc1ccccc1 (stereo not drawn) [Amphetamine] in the records?
Response: 1000 µM

###

Target: human DAT (Homo sapiens, UniProt Q01959)
Sequence (Q01959 whole entry): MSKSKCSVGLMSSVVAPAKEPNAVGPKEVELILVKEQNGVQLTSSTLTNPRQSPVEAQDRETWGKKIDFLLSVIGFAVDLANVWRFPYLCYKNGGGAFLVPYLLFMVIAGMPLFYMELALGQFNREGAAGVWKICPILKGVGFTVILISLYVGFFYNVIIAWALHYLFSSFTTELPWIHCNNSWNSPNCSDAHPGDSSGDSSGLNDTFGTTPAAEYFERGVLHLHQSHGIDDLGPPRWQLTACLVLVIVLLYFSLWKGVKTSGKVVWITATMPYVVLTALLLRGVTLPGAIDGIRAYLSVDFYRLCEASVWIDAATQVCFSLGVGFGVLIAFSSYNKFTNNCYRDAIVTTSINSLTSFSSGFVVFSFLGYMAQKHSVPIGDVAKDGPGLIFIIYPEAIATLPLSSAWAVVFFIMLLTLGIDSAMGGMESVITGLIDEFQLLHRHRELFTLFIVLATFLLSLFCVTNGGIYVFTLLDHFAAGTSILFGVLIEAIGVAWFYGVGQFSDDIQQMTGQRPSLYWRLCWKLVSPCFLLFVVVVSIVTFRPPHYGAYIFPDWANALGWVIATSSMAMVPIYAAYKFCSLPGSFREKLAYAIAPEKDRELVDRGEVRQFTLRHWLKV
Assay: Dopamine uptake inhibition in hDAT-transfected HEK 293 cells
# reported IC50; entries follow
Please reply with the bare figure in µM and do not write the unit itself.

Some compounds with known IC50 results, for comparison:
In [3]: df
Out[3]:
                                   compound  quantitative_result
0  CC(N)Cc1ccc(F)cc1 (centres unmarked) [4-Fluoroamphetamine, 4-fluoroamphetamine]                  3.9
1  CC(N)Cc1ccc(Cl)cc1 (centres unmarked) [4-Chloroamphetamine]                  3.6

Request: Which value of IC50 has been reported for CNC(C)C(=O)c1ccccc1 (centres unmarked) [Methcathinone, methcathinone] in the records?
Response: 1.6

Request: Which value of IC50 has been reported for CNC(C)C(=O)c1ccc(Cl)cc1 (centres unmarked) [4-Chloromethcathinone, 4-chloromethcathinone] in the records?
Response: 5.1

Request: Which value of IC50 has been reported for CNC(C)C(=O)c1ccc(F)cc1 (centres unmarked) [4-Fluoromethcathinone, 4-fluoromethcathinone] in the records?
Response: 6.6

###

# reported Concentration causing significant cell membrane integrity loss; entries follow
Tested on: HepG2 cells
Assay: Cell membrane integrity (ToxiLight BioAssay)
Assay type: cell-based, human
Conditions: HepG2, 24 h exposure; tested up to 2 mM
Please reply with the bare figure in µM and do not write the unit itself.

Some compounds with known Concentration causing significant cell membrane integrity loss results, for comparison:
>>> print(df.to_string())
                                   compound  quantitative_result
0  CC(N)Cc1ccccc1 (stereo not drawn) [Amphetamine]                 2000
1  CC(N)Cc1ccc(F)cc1 (stereo not drawn) [4-Fluoroamphetamine, 4-fluoroamphetamine]                 2000
2  CNC(C)C(=O)c1ccc(Cl)cc1 (stereo not drawn) [4-Chloromethcathinone, 4-chloromethcathinone]                 2000

Request: Which value of Concentration causing significant cell membrane integrity loss has been reported for CC(N)Cc1ccc(Cl)cc1 (stereo not drawn) [4-Chloroamphetamine] in the records?
Response: 500
